- measurement.target: Casein kinase II subunit alpha (Homo sapiens)
- method.description: Inhibition of recombinant CK2alpha1
Measured IC50 of individual entries
value.type: IC50

[[record]]
molecule = "O=C1C[C@H](O)[C@@H]2c3c(ccc(O)c31)-c1ccc(O)c3c1[C@@]2(O)CCC3=O [Altertoxin I]"
value = "> 28.3 µM"

[[record]]
molecule = "COc1cc(O)c2c(c1)-c1cc(O)c(O)cc1COC2=O [Alterlactone]"
value = "> 34.6 µM"

[[record]]
molecule = "COc1cc(O)c(C(=O)O)c(C2=C(C)C[C@@H](O)C2=O)c1 [Alternarienonic Acid]"
value = "> 35.9 µM"

[[record]]
molecule = "COc1cc(O)c2c(=O)oc3c(O)c(O)cc(C)c3c2c1"
value = "> 34.6 µM"

[[record]]
molecule = "Cc1cc(O)c(O)cc1-c1cc(O)cc(O)c1C(=O)O [Desmethylaltenusin]"
value = "> 36.2 µM"

[[record]]
molecule = "COc1cc(O)c2c(c1)C1(OC2=O)C(=O)C(=O)CC1C (configuration not stated) [TALAROFLAVONE]"
value = "> 36.2 µM"

[[record]]
molecule = "COc1cc(O)c2c(=O)oc3cc(O)cc(C)c3c2c1"
value = "> 36.7 µM"


====

- measurement.target: UniProt:P35968
- method.description: Inhibition of recombinant VEGFR2
pIC50: −log10 of the molar value.
value.type: pIC50

[[record]]
compound = "COc1cc(O)c2c(c1)-c1cc(O)c(O)cc1COC2=O"
lt_gt_eq = "<"
value = 4.46

[[record]]
compound = "COc1cc(O)c2c(c1)C1(OC2=O)C(=O)C(=O)CC1C (centres undefined)"
lt_gt_eq = "<"
value = 4.44

[[record]]
compound = "COc1cc(O)c2c(=O)oc3c(O)c(O)cc(C)c3c2c1"
lt_gt_eq = "="
value = 5.65

[[record]]
compound = "Cc1cc(O)cc2oc(=O)c3c(O)cc(OS(=O)(=O)O)cc3c12 [Alternariol 5-O-Sulfate]"
lt_gt_eq = "="
value = 5.69


====

Measured IC50 of individual entries
- measurement.target: Receptor tyrosine-protein kinase erbB-2 (Homo sapiens, UniProt P04626)
- Sequence (P04626 whole entry): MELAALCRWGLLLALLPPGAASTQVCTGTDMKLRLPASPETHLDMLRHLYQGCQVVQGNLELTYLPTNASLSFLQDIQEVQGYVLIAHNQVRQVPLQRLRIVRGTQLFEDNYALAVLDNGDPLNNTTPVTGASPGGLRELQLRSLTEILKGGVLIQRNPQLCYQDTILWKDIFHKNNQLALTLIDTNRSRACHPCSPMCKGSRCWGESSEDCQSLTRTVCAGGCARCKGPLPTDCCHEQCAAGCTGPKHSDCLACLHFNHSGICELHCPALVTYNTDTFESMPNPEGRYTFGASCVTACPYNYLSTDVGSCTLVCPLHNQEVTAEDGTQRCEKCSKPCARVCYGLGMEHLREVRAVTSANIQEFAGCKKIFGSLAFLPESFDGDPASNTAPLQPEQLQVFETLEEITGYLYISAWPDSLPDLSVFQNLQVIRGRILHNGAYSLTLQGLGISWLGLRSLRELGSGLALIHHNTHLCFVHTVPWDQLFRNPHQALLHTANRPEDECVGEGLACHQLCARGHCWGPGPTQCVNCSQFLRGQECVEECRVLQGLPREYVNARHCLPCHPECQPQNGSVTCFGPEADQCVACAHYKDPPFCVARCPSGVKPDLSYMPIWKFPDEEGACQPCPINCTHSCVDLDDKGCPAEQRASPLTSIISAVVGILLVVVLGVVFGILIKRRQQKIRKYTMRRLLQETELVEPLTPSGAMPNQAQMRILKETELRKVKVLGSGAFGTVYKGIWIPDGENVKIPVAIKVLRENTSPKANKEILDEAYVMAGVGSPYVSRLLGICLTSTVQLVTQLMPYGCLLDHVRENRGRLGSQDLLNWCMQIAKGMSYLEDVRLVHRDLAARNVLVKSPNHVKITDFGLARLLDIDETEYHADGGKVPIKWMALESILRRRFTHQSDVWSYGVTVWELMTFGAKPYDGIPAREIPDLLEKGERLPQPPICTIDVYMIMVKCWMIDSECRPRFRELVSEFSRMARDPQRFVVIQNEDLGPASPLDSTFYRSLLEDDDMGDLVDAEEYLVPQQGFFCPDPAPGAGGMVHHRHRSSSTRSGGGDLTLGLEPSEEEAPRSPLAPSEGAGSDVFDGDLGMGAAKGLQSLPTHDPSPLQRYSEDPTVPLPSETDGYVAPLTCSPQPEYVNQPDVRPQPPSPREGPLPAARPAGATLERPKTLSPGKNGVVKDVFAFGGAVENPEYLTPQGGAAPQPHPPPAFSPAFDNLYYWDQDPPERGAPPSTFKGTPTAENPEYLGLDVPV
- method.description: Inhibition of recombinant ERBB2
value.type: IC50

[[record]]
molecule = "Cc1cc(O)c(O)cc1-c1cc(O)cc(O)c1C(=O)O [Desmethylaltenusin]"
value_type = "IC50"
value = "> 36.2 µM"

[[record]]
molecule = "COc1cc(O)c(C(=O)O)c(C2=C(C)C[C@@H](O)C2=O)c1 [Alternarienonic Acid]"
value_type = "IC50"
value = "> 35.9 µM"

[[record]]
molecule = "COc1cc(O)c2c(c1)-c1cc(O)c(O)cc1COC2=O [Alterlactone]"
value_type = "IC50"
value = "> 34.6 µM"

[[record]]
molecule = "O=C1C[C@H](O)[C@@H]2c3c(ccc(O)c31)-c1ccc(O)c3c1[C@@]2(O)CCC3=O [Altertoxin I]"
value_type = "IC50"
value = "> 28.3 µM"

[[record]]
molecule = "COc1cc(O)c2c(c1)C1(OC2=O)C(=O)C(=O)CC1C (stereo not given) [TALAROFLAVONE]"
value_type = "IC50"
value = "> 36.2 µM"


====

Measured pIC50 of individual entries
- measurement.target: Focal adhesion kinase 1 (Homo sapiens, UniProt Q05397)
- Sequence (Q05397 whole entry): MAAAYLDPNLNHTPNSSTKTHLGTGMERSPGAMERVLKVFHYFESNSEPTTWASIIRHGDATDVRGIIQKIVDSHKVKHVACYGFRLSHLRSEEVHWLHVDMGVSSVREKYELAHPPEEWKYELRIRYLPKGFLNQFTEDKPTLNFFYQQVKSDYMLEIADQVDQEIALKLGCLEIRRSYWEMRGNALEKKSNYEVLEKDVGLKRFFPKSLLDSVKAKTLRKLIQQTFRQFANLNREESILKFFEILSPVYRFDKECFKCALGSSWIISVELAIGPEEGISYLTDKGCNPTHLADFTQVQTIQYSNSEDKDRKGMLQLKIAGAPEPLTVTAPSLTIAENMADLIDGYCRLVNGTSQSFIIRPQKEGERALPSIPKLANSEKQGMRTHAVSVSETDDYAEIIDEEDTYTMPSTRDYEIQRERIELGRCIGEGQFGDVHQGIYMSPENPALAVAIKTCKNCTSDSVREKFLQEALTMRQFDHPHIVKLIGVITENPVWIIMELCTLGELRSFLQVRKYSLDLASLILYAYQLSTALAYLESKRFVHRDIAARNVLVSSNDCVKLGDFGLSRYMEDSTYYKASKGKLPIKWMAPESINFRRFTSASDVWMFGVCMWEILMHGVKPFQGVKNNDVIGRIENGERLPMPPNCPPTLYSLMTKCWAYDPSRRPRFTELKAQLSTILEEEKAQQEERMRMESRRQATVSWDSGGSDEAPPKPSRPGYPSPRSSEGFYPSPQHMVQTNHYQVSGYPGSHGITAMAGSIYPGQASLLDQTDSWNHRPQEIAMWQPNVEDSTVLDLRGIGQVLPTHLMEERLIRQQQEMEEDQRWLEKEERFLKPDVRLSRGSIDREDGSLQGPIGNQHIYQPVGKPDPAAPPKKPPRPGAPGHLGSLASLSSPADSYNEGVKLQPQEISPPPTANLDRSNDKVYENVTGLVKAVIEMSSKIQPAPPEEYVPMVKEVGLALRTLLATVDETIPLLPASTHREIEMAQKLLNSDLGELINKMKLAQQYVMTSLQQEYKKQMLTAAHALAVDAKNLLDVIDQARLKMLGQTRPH
- method.description: Inhibition of recombinant FAK
pIC50: −log10 of the molar value.
value.type: pIC50

[[record]]
compound = "COc1cc(O)c(C(=O)O)c(C2=C(C)C[C@@H](O)C2=O)c1"
measurement_target = "Focal adhesion kinase 1 (Homo sapiens, UniProt Q05397)"
value = "< 4.44"

[[record]]
compound = "COc1cc(O)c2c(c1)C1(OC2=O)C(=O)C(=O)CC1C (stereo not drawn)"
measurement_target = "Focal adhesion kinase 1 (Homo sapiens, UniProt Q05397)"
value = "< 4.44"

[[record]]
compound = "COc1cc(O)c2c(c1)-c1cc(O)c(O)cc1COC2=O"
measurement_target = "Focal adhesion kinase 1 (Homo sapiens, UniProt Q05397)"
value = "< 4.46"


====

- measurement.target: Aurora kinase B (Homo sapiens, UniProt Q96GD4)
- Sequence (Q96GD4 whole entry): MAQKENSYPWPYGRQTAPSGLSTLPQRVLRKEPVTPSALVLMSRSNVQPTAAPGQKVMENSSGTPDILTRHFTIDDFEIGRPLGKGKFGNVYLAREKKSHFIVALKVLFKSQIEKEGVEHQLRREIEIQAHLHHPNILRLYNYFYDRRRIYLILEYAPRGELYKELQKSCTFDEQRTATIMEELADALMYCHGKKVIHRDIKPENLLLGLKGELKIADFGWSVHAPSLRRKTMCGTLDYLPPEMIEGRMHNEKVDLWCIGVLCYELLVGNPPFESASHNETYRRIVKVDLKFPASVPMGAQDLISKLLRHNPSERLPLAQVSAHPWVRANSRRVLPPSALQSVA
- method.description: Inhibition of recombinant Aurora B
value.type: IC50 (nM)

[[record]]
compound = "COc1cc(O)c2c(c1)-c1cc(O)c(O)cc1COC2=O [Alterlactone]"
lt_gt_eq = ">"
value = 34600

[[record]]
compound = "COc1cc(O)c2c(c1)C1(OC2=O)C(=O)C(=O)CC1C (centres undefined) [TALAROFLAVONE]"
lt_gt_eq = ">"
value = 36200

[[record]]
compound = "O=C1C[C@H](O)[C@@H]2c3c(ccc(O)c31)-c1ccc(O)c3c1[C@@]2(O)CCC3=O [Altertoxin I]"
lt_gt_eq = "="
value = 2780

[[record]]
compound = "Cc1cc(O)cc2oc(=O)c3c(O)cc(OS(=O)(=O)O)cc3c12 [Alternariol 5-O-Sulfate]"
lt_gt_eq = "="
value = 650


====

- measurement.target: Angiopoietin-1 receptor (Homo sapiens, UniProt Q02763)
- Sequence (Q02763 whole entry): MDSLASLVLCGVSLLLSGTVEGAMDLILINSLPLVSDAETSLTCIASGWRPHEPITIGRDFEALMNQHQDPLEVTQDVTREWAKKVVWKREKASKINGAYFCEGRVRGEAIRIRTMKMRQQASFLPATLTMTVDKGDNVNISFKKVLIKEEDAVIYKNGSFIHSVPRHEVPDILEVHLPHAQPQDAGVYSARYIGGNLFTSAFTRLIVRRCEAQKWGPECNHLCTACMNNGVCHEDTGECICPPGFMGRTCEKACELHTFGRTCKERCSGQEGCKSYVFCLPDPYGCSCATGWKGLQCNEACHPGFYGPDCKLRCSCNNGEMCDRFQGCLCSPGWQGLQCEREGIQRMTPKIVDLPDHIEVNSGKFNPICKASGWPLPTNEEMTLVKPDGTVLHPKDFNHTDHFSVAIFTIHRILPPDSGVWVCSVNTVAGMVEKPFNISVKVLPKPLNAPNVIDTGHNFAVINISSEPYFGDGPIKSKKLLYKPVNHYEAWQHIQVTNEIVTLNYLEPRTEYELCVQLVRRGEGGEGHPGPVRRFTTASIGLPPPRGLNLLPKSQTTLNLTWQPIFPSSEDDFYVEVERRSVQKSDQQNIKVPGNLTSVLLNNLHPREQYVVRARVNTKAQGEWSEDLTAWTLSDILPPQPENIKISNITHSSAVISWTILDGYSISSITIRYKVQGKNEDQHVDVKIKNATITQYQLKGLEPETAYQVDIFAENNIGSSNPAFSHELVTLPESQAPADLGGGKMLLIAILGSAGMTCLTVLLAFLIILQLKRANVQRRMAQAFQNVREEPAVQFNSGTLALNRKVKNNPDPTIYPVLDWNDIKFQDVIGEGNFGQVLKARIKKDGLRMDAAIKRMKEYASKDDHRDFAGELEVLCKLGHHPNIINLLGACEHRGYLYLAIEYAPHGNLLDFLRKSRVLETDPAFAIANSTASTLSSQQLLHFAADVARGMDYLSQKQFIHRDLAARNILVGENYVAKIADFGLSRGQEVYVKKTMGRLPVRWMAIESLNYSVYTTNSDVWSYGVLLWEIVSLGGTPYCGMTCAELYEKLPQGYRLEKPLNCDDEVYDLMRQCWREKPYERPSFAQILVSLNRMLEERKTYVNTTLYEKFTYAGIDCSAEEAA
- method.description: Inhibition of recombinant TIE2
pIC50: −log10 of the molar value.
Measured pIC50 of individual entries
value.type: pIC50

[[record]]
compound = "COc1cc(O)c2c(c1)-c1cc(O)c(O)cc1COC2=O"
value_type = "pIC50"
value = "< 4.46"

[[record]]
compound = "COc1cc(O)c2c(c1)C1(OC2=O)C(=O)C(=O)CC1C (stereo not drawn)"
value_type = "pIC50"
value = "< 4.44"

[[record]]
compound = "COc1cc(O)c(C(=O)O)c(C2=C(C)C[C@@H](O)C2=O)c1"
value_type = "pIC50"
value = "< 4.44"


====

Measured pIC50 of individual entries
- measurement.target: Proto-oncogene tyrosine-protein kinase Src (Homo sapiens)
- method.description: Inhibition of recombinant SRC
pIC50: −log10 of the molar value.
value.type: pIC50

[[record]]
compound = "COc1cc(O)c2c(c1)C1(OC2=O)C(=O)C(=O)CC1C (configuration not stated) [TALAROFLAVONE]"
measurement_target = "Proto-oncogene tyrosine-protein kinase Src (Homo sapiens)"
value_type = "pIC50"
value = "< 4.44"

[[record]]
compound = "COc1cc(O)c2c(c1)-c1cc(O)c(O)cc1COC2=O [Alterlactone]"
measurement_target = "Proto-oncogene tyrosine-protein kinase Src (Homo sapiens)"
value_type = "pIC50"
value = "< 4.46"


====

- measurement.target: Cyclin-dependent kinase 4/G1/S-specific cyclin-D1 (Homo sapiens)
- Sequence (P11802 whole entry): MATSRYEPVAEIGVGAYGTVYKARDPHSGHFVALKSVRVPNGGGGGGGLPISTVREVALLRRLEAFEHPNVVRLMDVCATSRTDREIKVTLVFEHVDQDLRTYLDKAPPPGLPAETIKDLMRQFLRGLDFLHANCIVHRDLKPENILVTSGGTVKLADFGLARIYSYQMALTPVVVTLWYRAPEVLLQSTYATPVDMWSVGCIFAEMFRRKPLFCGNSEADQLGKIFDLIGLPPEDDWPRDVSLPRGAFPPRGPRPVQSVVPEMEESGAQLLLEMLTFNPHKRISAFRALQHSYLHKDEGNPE
- Sequence (P24385 whole entry, further chain): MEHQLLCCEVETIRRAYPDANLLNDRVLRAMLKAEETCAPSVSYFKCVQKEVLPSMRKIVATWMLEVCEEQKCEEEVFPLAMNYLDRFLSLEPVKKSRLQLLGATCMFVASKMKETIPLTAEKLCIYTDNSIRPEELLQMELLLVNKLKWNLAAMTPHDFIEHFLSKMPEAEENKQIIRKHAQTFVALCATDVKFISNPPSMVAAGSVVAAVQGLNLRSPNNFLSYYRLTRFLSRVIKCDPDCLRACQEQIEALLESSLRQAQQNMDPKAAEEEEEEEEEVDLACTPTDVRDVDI
- method.description: Inhibition of recombinant CDK4/CycD1
pIC50: −log10 of the molar value.
value.type: pIC50

[[record]]
compound = "COc1cc(O)c2c(c1)C1(OC2=O)C(=O)C(=O)CC1C (stereo not drawn)"
value = "< 4.44"

[[record]]
compound = "COc1cc(O)c2c(c1)-c1cc(O)c(O)cc1COC2=O"
value = "< 4.46"

[[record]]
compound = "COc1cc(O)c(C(=O)O)c(C2=C(C)C[C@@H](O)C2=O)c1"
value = "< 4.44"


====

- measurement.target: Ephrin type-B receptor 4 (Homo sapiens)
- method.description: Inhibition of recombinant EPHB4
pIC50: −log10 of the molar value.
Measured pIC50 of individual entries
value.type: pIC50

[[record]]
molecule = "COc1cc(O)c(C(=O)O)c(C2=C(C)C[C@@H](O)C2=O)c1 [Alternarienonic Acid]"
value = "< 4.44"

[[record]]
molecule = "COc1cc(O)c2c(c1)C1(OC2=O)C(=O)C(=O)CC1C (centres undefined) [TALAROFLAVONE]"
value = "< 4.44"

[[record]]
molecule = "COc1cc(O)c2c(c1)-c1cc(O)c(O)cc1COC2=O [Alterlactone]"
value = "< 4.46"

[[record]]
molecule = "Cc1cc(O)cc2oc(=O)c3c(O)cc(O)cc3c12 [CHEBI:64983]"
value = "< 4.41"


====

Measured pIC50 of individual entries
- measurement.target: RAC-alpha serine/threonine-protein kinase (Homo sapiens)
- Sequence (P31749 whole entry): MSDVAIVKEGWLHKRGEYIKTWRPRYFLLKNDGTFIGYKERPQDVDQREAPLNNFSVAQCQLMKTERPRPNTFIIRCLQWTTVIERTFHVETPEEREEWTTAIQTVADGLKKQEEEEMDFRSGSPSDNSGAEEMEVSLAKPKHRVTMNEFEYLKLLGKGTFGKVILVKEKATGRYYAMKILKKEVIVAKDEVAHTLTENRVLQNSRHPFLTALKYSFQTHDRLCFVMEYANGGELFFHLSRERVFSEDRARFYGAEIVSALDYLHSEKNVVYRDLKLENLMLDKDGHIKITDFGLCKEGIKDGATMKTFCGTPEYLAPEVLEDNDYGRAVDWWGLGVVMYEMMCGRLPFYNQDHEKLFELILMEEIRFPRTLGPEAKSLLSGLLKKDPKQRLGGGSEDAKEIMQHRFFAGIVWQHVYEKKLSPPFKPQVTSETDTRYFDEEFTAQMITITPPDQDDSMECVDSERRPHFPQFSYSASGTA
- method.description: Inhibition of recombinant AKT1
pIC50: −log10 of the molar value.
value.type: pIC50

[[record]]
compound = "Cc1cc(O)c(O)cc1-c1cc(O)cc(O)c1C(=O)O [Desmethylaltenusin]"
value = "< 4.44"

[[record]]
compound = "O=C1C[C@H](O)[C@@H]2c3c(ccc(O)c31)-c1ccc(O)c3c1[C@@]2(O)CCC3=O [Altertoxin I]"
value = "< 4.55"

[[record]]
compound = "COc1cc(O)c2c(c1)-c1cc(O)c(O)cc1COC2=O [Alterlactone]"
value = "< 4.46"

[[record]]
compound = "Cc1cc(O)cc2oc(=O)c3c(O)cc(OS(=O)(=O)O)cc3c12 [Alternariol 5-O-Sulfate]"
value = "< 4.53"

[[record]]
compound = "COc1cc(O)c2c(c1)C1(OC2=O)C(=O)C(=O)CC1C (configuration not stated) [TALAROFLAVONE]"
value = "< 4.44"

[[record]]
compound = "Cc1cc(O)cc2oc(=O)c3c(O)cc(O)cc3c12 [CHEBI:64983]"
value = "< 4.41"

[[record]]
compound = "COc1cc(O)c(C(=O)O)c(C2=C(C)C[C@@H](O)C2=O)c1 [Alternarienonic Acid]"
value = "< 4.44"

